Target entity: [Pyruvate dehydrogenase (acetyl-transferring)] kinase isozyme 1, mitochondrial (Homo sapiens, UniProt Q15118)
Sequence (Q15118 whole entry): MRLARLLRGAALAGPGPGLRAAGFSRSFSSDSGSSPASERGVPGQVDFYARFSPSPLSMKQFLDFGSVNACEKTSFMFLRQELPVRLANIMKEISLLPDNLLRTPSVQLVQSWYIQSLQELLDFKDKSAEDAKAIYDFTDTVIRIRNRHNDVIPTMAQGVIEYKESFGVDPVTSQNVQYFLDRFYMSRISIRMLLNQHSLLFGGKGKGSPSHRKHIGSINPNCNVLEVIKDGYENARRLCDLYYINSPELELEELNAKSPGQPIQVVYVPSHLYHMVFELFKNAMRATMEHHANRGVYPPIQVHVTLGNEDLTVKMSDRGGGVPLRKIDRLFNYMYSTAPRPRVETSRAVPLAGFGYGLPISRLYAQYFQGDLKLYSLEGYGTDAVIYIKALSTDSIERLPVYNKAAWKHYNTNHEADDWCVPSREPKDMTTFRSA
Test summary: Ratio of Kinact to Ki for full length His6-tagged PDK1 (unknown origin) expressed in Escherichia coli
The label Y is reserved for Ratio strictly under 0.5 ×10³ /M/s; N covers values equal to or above it.

Compound: S=C(SSC(=S)N1CCOc2ccccc21)N1CCOc2ccccc21
Cat: Y
//
Compound: OC[C@@H]1COCCN1C(=S)SSC(=S)N1CCOC[C@H]1CO
Cat: N
//
Compound: c1csc(SSc2nccs2)n1
Cat: N
//
Compound: OC1CN(C(=S)SSC(=S)N2CC(O)C2)C1
Cat: Y
//
Compound: C1CCc2nc(SSc3nc4c(s3)CCCCC4)sc2CC1
Cat: N
//
Compound: S=C(SSC(=S)N1CCOC(COc2cccc3ccccc23)C1)N1CCOC(COc2cccc3ccccc23)C1 (stereo unspecified)
Cat: Y

====

Target entity: [Pyruvate dehydrogenase (acetyl-transferring)] kinase isozyme 1, mitochondrial (Homo sapiens, UniProt Q15118)
pKi: −log10 of the molar value.
Quantity name: pKi

Compound: S=C(SSC(=S)N1CCCOCC1)N1CCCOCC1
Reading: 6.96

Compound: COC[C@@H]1COCCN1C(=S)SSC(=S)N1CCOC[C@H]1COC
Reading: 6.96

Compound: C1CCc2nc(SSc3nc4c(s3)CCCCC4)sc2CC1
Reading: 5.74

Compound: OC[C@@H]1COCCN1C(=S)SSC(=S)N1CCOC[C@H]1CO
Reading: 5.39

Compound: COC[C@H]1COCCN1C(=S)SSC(=S)N1CCOC[C@@H]1COC
Reading: 6.92

Compound: S=C(SSC(=S)N1CCOCC1)N1CCOCC1
Reading: 6.34

Compound: c1csc(SSc2nccs2)n1
Reading: 5.43

Compound: S=C(SSC(=S)N1CCOC(COc2cccc3ccccc23)C1)N1CCOC(COc2cccc3ccccc23)C1 (stereo not drawn)
Reading: 4.65
